Just for reference, ChEMBL document CHEMBL1811770 is where these values come from.

# Assay system: 5-hydroxytryptamine receptor 2A (Rattus norvegicus) (UniProt P14842)
# Sequence (P14842 whole entry): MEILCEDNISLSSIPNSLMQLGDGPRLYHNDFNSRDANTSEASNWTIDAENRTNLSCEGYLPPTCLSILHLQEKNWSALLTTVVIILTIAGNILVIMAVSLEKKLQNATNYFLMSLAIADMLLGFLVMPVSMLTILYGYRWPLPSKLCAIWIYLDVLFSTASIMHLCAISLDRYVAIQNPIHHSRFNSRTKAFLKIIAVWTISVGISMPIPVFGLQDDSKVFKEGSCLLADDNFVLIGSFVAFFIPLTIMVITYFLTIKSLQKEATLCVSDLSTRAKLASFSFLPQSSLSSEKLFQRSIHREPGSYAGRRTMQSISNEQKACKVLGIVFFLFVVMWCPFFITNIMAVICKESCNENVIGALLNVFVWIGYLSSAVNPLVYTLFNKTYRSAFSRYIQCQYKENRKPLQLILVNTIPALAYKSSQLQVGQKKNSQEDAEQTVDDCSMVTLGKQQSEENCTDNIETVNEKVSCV
# Assay details: Displacement of [3H]ketanserin from 5HT2A receptor in rat cortex membrane at 10^-6 M by radioligand binding assay
# Type: cell membranes

{"columns": ["Compound smiles", "Result units", "inhibition"],
 "data": [
  ["O=c1c2cnc3ccccc3c2ncn1CCN1CCN(c2cccc(Cl)c2)CC1", "%", 22],
  ["COc1ccc(N2CCN(CCCCn3cnc4c(cnc5ccccc54)c3=O)CC2)cc1", "%", 48],
  ["O=c1c2cnc3ccccc3c2ncn1CCCN1CCN(c2ccccc2Cl)CC1", "%", 41],
  ["O=c1c2cnc3ccccc3c2ncn1CCCCN1CCN(c2ccc(Cl)cc2)CC1", "%", 79],
  ["COc1cccc(N2CCN(CCCn3cnc4c(cnc5ccccc54)c3=O)CC2)c1", "%", 26],
  ["O=c1c2cnc3ccccc3c2ncn1CCCN1CCN(c2ccc(F)cc2)CC1", "%", 73],
  ["Cc1ccc2ncc3c(=O)n(CCCN4CCN(c5ccc(F)cc5)CC4)cnc3c2c1", "%", 39],
  ["COc1ccc(N2CCN(CCn3cnc4c(cnc5cc(C)ccc54)c3=O)CC2)cc1", "%", 9],
  ["COc1ccc(N2CCN(CCn3cnc4c(cnc5ccc(C)cc54)c3=O)CC2)cc1", "%", 4],
  ["Cc1ccccc1N1CCN(CCCn2cnc3c(cnc4ccccc43)c2=O)CC1", "%", 32]
]}

---

# Assay system: 5-hydroxytryptamine receptor 1A (Rattus norvegicus)
# Assay details: Displacement of [3H]8-OH-DPAT from 5HT1A receptor in rat hippocampal membrane at 10^-6 M by radioligand binding assay
# Type: cell membranes
# Experimental context: Hippocampus
Some compounds, each annotated with its measured inhibition.
Parameter measured: inhibition (%)

{"columns": ["Compound smiles", "Parameter measured", "Endpoint result"],
 "data": [
  ["COc1ccccc1N1CCN(CCn2cnc3c(cnc4cc(C)ccc43)c2=O)CC1", "inhibition", 96],
  ["O=c1c2cnc3ccccc3c2ncn1CCCCN1CCN(c2ccc(F)cc2)CC1", "inhibition", 75],
  ["O=c1c2cnc3ccccc3c2ncn1CCN1CCN(c2ccc(F)cc2)CC1", "inhibition", 40],
  ["COc1ccccc1N1CCN(CCCCn2cnc3c(cnc4ccccc43)c2=O)CC1", "inhibition", 97],
  ["COc1ccccc1N1CCN(CCCCn2cnc3c(cnc4cc(C)ccc43)c2=O)CC1", "inhibition", 99],
  ["O=c1c2cnc3ccccc3c2ncn1CCCN1CCN(c2ccc(F)cc2)CC1", "inhibition", 85]
]}

---

Overview of recorded inhibition for various compounds
# Assay system: 5-hydroxytryptamine receptor 1A (Rattus norvegicus) (UniProt P19327)
# Sequence (P19327 whole entry): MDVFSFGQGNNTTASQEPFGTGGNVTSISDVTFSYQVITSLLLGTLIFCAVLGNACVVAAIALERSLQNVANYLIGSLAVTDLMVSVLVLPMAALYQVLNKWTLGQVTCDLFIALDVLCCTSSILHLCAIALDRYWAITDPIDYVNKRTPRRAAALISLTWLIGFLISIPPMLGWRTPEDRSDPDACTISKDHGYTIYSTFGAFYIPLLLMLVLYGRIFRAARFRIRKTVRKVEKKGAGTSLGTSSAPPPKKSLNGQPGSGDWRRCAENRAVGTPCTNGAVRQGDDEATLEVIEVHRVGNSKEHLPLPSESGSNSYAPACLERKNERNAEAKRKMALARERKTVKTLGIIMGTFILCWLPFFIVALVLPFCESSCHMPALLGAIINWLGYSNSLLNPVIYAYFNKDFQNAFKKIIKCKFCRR
# Assay details: Displacement of [3H]8-OH-DPAT from 5HT1A receptor in rat hippocampal membrane at 10^-6 M by radioligand binding assay
# Format: cell membranes
# Experimental context: Hippocampus
Parameter measured: inhibition (%)

{"columns": ["Compound smiles", "Result units", "Endpoint result"],
 "data": [
  ["O=c1c2cnc3ccccc3c2ncn1CCCN1CCN(c2ccc(Cl)cc2)CC1", "%", 42],
  ["COc1ccccc1N1CCN(CCCCn2cnc3c(cnc4ccc(C)cc43)c2=O)CC1", "%", 99],
  ["O=c1c2cnc3ccccc3c2ncn1CCN1CCN(c2ccccc2F)CC1", "%", 47],
  ["O=c1c2cnc3ccccc3c2ncn1CCCCN1CCN(c2cccc(Cl)c2)CC1", "%", 96],
  ["O=c1c2cnc3ccccc3c2ncn1CCCCN1CCN(c2ccccc2F)CC1", "%", 96],
  ["Cc1ccc2ncc3c(=O)n(CCCN4CCN(c5cccc(Cl)c5)CC4)cnc3c2c1", "%", 77],
  ["COc1ccc(N2CCN(CCn3cnc4c(cnc5cc(C)ccc54)c3=O)CC2)cc1", "%", 9],
  ["COc1ccc(N2CCN(CCn3cnc4c(cnc5ccc(C)cc54)c3=O)CC2)cc1", "%", 5],
  ["Cc1ccc2c(c1)ncc1c(=O)n(CCCN3CCN(c4cccc(Cl)c4)CC3)cnc12", "%", 73],
  ["O=c1c2cnc3ccccc3c2ncn1CCCN1CCN(c2cccc(Cl)c2)CC1", "%", 91],
  ["COc1ccccc1N1CCN(CCCn2cnc3c(cnc4ccccc43)c2=O)CC1", "%", 97]
]}
